Where do these numbers come from? They come from the supplement of paper PMC11865577.

Test system: TO-N3 (biotin conjugate)
Assay: pull-down binding Z-score (relative to library population); higher = stronger binding
Conditions: RNA library: Library-2
Provide the reported pull-down binding Z-score of each item.
Give bare numbers.

# annotated cases, reported pull-down binding Z-score shown
INSERT INTO measurements (residuecodes, measuredproperty, quantitativeresult) VALUES
  ('CUCUCAUCGAUCUCCAAGAACUUGGAAAGUAUGAGCAG [SHAPE_invitro_SARS-CoV-2_Motif_456]', 'pull-down binding Z-score', -0.095),
  ('CCUUGUGAAUGUCGGGCAAUGG [hsa-mir-4701]', 'pull-down binding Z-score', 0.267),
  ('UCCUCAGUUUUACAUUCAACUCAGGA', 'pull-down binding Z-score', -0.757),
  ('GCUUGAAGUGGAGC [IAV_invivo_NS1_NEP_8_Motif_14+IAV_invivo_NS1_NEP_8_Motif_14]', 'pull-down binding Z-score', -0.23);

Please look at the following sequence next.
Reported pull-down binding Z-score for AUGGCCCCGAUUUCAGCUAU [SHAPE_invivo_SARS-CoV-2_Motif_151] was -0.668

###

Provide the reported pull-down binding Z-score of each item.
System: G-clamp-N3 (biotin conjugate)
Assay: pull-down binding Z-score (relative to library population); higher = stronger binding
Details: RNA library: Library-1 (pre-miRNA loops + repeats)
Numbers only.

INSERT INTO measurements (residuecodes, measuredproperty, quantitativeresult) VALUES
  ('CCCUGGGGAGCUGCUGCAGGCAGCAGGUGGGCGGGACGCCAGCAGGCUGUCUAGCUGUUCCCAUGAUGG [hsa-mir-6843]', 'pull-down binding Z-score', 2.14),
  ('GGCAUCCCCAUUGCU [hsa-mir-4304]', 'pull-down binding Z-score', -0.987),
  ('UGAGUGAUGACUCAGGCGACUCCA [hsa-mir-338]', 'pull-down binding Z-score', 1.31),
  ('CCCACUUCCUGGA [hsa-mir-4260]', 'pull-down binding Z-score', -0.562),
  ('UGAGACCUGGUGCAGAACGGGAAGGCGA [hsa-mir-551b]', 'pull-down binding Z-score', 1.4),
  ('CUAACAGGCCCCUGUCACCAUUAG [hsa-mir-5579]', 'pull-down binding Z-score', -0.762);

Below is a list of sequences. For each, state its recorded pull-down binding Z-score.
1. CUGAGAGUGUCAUGGUGGAGCCUCCG [hsa-mir-4784]
2. GCUUCUCUUUCUCACCAGCAGC [hsa-mir-4467]
3. AUCUGAAUGAUCUCAGC [hsa-mir-626]
4. UGGCUUGCACCGUGACUCCCUCUCACCAAGCAAGUGUC [hsa-mir-4440]
5. GAUGGAUUCUUAUGCUCCAUC [hsa-mir-136]
6. AAUGCAUAGAAAGCAUU [hsa-mir-4272]
7. GUUUGAUAGUUUAGACACAAAC [hsa-mir-3591]
8. GUUUUACUAUGAUGAGGUGUGCCAUCCACCCCAUCAUAGUAAAC [hsa-mir-606]

Return:
1. 0.795
2. -1.87
3. -1.32
4. -0.837
5. 0.328
6. 1.58
7. 0.0903
8. -0.172

###

Test system: TO-N3-2 (biotin conjugate)
Assay: pull-down binding Z-score (relative to library population); higher = stronger binding
Settings: RNA library: Library-2
The threshold is inclusive: pull-down binding Z-score of exactly -0.4 counts as TRUE; values below receive FALSE.

INSERT INTO measurements (residuecodes, classification) VALUES
  ('GCUGCCAGGAAAUCCCUAUUUCAUAUAAGAGGGGGCUGGCUGGUUGC [hsa-mir-448]', 'TRUE'),
  ('UUUUUCUUUACUUUUAAUGGCAAA [hsa-mir-548u]', 'FALSE'),
  ('UCCUGUGGUAAUUUUAAAGUUACAAAAGGA', 'FALSE'),
  ('CGGGCCCCUCCCCUCAAUGGGCCCG [hsa-mir-5685]', 'FALSE'),
  ('GUUGUUGUGAGCAAUAGUAAGGAAGCAAU [hsa-mir-34a]', 'TRUE');

Enquiry: In plain terms: is recorded pull-down binding Z-score at least -0.4 for UGGGCCAAG [hsa-mir-3620] ?
Return: TRUE

Enquiry: In plain terms: is recorded pull-down binding Z-score at least -0.4 for CAAGAGGUGUGAGCCACACACACGCCUGGCCUCCUG [hsa-mir-5699] ?
Return: TRUE

Enquiry: In plain terms: is recorded pull-down binding Z-score at least -0.4 for CCUGUUUGAAUAUUUCACCAGAAACAGG [hsa-mir-4433b] ?
Return: FALSE

Enquiry: In plain terms: is recorded pull-down binding Z-score at least -0.4 for UCACACUAAAAAGUGGA ?
Return: FALSE

Enquiry: In plain terms: is recorded pull-down binding Z-score at least -0.4 for UCCAAACGCAAGCUUCGAUAAUUUUAAGUUUGUAUGUGA [SHAPE_invivo_SARS-CoV-2_Motif_125] ?
Return: FALSE

Enquiry: In plain terms: is recorded pull-down binding Z-score at least -0.4 for UAGGUUGUUAUUUAAUCCAACU [hsa-mir-190a] ?
Return: FALSE

Enquiry: In plain terms: is recorded pull-down binding Z-score at least -0.4 for UGUGUACACACA [SHAPE_invivo_SARS-CoV-2_Motif_249] ?
Return: FALSE

Enquiry: In plain terms: is recorded pull-down binding Z-score at least -0.4 for UUAACGUGAGUCUUGUAAAACCUUCUUUUUACGUUUACUCUCGUGUUAA [DMSMaPseq_invitro_SARS-CoV-2_Motif_474] ?
Return: FALSE

Enquiry: In plain terms: is recorded pull-down binding Z-score at least -0.4 for AAAUUGCAGACACUAGGACCAUGUCUUGGUUUUUGCAAUAAUG [hsa-mir-1248] ?
Return: FALSE
